tested on: [Candida] aaseri; assay: Antifungal activity against Candida aaseri MTCC 1962 incubated for 24 hrs at 30 degC by well diffusion method; assay type: functional; settings: Yamadazyma aaseri, MTCC 1962, 24 h
Test Readout: MIC

> print(dat)
                                   compound  test.readout      result
1             CCCCCCCCC[C@@H](O)[C@@H](N)CO           MIC  15.6 µg/mL
2  CCCCCCCCC[C@@H](O)[C@H](CO)n1cc(-c2cccc(O)c2)nn1           MIC   7.8 µg/mL
3  Clc1ccc(COC(Cn2ccnc2)c2ccc(Cl)cc2Cl)c(Cl)c1 (centres undefined) [MICONAZOLE]           MIC   7.8 µg/mL

// below: MIC requested for another compound
Request: // MIC lookup, key: CCCCCCCCC[C@@H](O)[C@H](CO)n1cc(-c2ccccc2)nn1
Response: 31.2 µg/mL
